MFI by entry:
Molecular target: T1, human TREM2 expressed on cells (human, UniProt Q9NZC2 19-230)
T1 construct: BW5147.G.1.4 cells stably expressing human TREM2 together with Dap12, or endogenous TREM2 of primary human myeloid cells; also called huT2 BW; hTREM2 expressing cell line
T1 sequence: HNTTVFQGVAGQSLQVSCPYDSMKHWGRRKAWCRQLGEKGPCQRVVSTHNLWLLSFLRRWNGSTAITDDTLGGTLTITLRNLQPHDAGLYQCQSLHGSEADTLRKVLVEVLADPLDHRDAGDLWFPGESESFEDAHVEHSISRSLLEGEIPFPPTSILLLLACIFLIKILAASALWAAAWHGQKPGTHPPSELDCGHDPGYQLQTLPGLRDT
Assay: FACS, human DCs; also: test concentration or dose not given here
I only need the number, in MFI, no unit after it.

Which MFI is reported for this binder? AL2p-54 (antibody, V domains shown, Fab and IgG formats under one id) VH: QVQLVQSGAEVKKPGSSVKVSCKASGYAFSSHWMNWVRQAPGQGLEWMGRIYPGEGDTNYAQKFHGRVTITADESTSTAYMELSSLRSEDTAVYYCARLLRNKPGESYAMDYWGQGTLVTVSS VL: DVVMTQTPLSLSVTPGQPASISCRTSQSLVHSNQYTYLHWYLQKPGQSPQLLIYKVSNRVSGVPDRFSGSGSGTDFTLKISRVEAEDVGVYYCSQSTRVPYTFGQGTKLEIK 235

Which MFI is reported for this binder? AL2p-51 (antibody, V domains shown, Fab and IgG formats under one id) VH: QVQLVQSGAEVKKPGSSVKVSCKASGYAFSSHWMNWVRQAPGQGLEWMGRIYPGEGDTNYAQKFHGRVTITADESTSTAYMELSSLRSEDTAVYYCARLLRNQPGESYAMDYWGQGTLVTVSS VL: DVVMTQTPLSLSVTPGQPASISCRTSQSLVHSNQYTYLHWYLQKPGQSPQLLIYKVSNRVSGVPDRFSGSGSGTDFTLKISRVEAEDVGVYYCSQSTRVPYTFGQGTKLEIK 195
